- Test system: KM12
- Method Summary: NCI tumour cell line growth inhibition, 48 h
Activity calls are given as the source filed them. No stated cut-off is given here; in the data, active = GI50 up to about 1.1 µM and inactive = higher.
The reply should name one outcome from Y for active, N for inactive

Example results:
# Compound, Label Class
rows = [
    ("COC(=O)C1(O)C(c2ccccc2)NC2(C)CCCC21 (stereo not given)", "N"),
    ("C/C=C/COc1cc(NC(=S)OC(C)C)ccc1Cl.C/C=C\\COc1cc(NC(=S)OC(C)C)ccc1Cl", "N"),
    ("NS(=O)(=O)c1ccc(Nc2c3ccccc3nc3c(C(=O)NC(CO)(CO)CO)cccc23)cc1", "Y"),
    ("Cc1cc2c(cc1C)[n+]([O-])c(C(=O)/C=C/c1ccccc1[N+](=O)[O-])c(C)[n+]2[O-]", "N"),
]

Next item in the queue.
How did this test come out for "Oc1c(Br)ccc2cccnc12" ?
N

###

- System: M14
- Method Summary: NCI tumour cell line growth inhibition, 48 h
Activity calls are given as the source filed them. Cut-off read from the data, not from the text of the source: active = GI50 up to about 1.1 µM and inactive = higher.
Endpoint Label: GI50

# Compound, GI50
measured = [
    ("N#Cc1c(-c2ccccc2)cc(-c2cccs2)c(C#N)c1N", "> 100 µM (inactive)"),
    ("CCOC(=O)/C(=C\\NC(C)(C)C)c1nc2ccccc2o1", "48 µM (inactive)"),
    ("Cc1[nH]c(-c2ccccc2)c(-c2ccc(Cl)cc2)c1C(=O)ONC(=O)c1ccccc1", "4.55 µM (inactive)"),
    ("OC1C2CCC1C1C3C=CC(C3)C21 (stereo not given)", "> 100 µM (inactive)"),
    ("O=c1c(Cc2ccc(Cl)cc2)nnc2sc(-c3ccc(-c4ccc(Cl)cc4Cl)o3)nn12", "95.5 µM (inactive)"),
    ("CC(=O)CN(Cc1cc(C)c2c(c1)c1ccccc1n2Cc1ccccc1)S(=O)(=O)c1ccc(C)cc1", "> 100 µM (inactive)"),
]

Shift focus to the following entry.
Specify GI50 for "Cc1c(C(=O)OCc2ccccc2)[n+]([O-])c2cc(Cl)c(Cl)cc2[n+]1[O-]" and stop.
15 µM (inactive)

###

- Test system: UACC-62
- Method Summary: NCI tumour cell line growth inhibition, 48 h
Calls of active or inactive are those of the source. No stated cut-off is given here; in the data, active = GI50 up to about 1.1 µM and inactive = higher.
Endpoint Label: GI50

Some compounds with known GI50 results, for comparison:
# Smiles Entry, Recorded Measurement
data = [
    ("C[C@]12CC/C(=N\\O)C=C1CC[C@@H]1[C@@H]2CC[C@]2(C)C(=N/O)/C(=C/c3cccnc3)C[C@@H]12", "3.3 µM (inactive)"),
    ("Clc1ccc2nc3c(c(-c4ccccc4)nn3-c3ccccc3)c(-c3ccccc3)c2c1", "> 100 µM (inactive)"),
]

Shift focus to the following entry.
Specify GI50 for "O=C1Nc2ccc([N+](=O)[O-])cc2/C1=N/Nc1ccc([N+](=O)[O-])cc1" and stop.
14.6 µM (inactive)

###

- System: SK-MEL-5
- Method Summary: NCI tumour cell line growth inhibition, 48 h
Active and inactive are the calls of the source. No stated cut-off is given here; in the data, active = GI50 up to about 1.1 µM and inactive = higher.
Endpoint Label: GI50

# Molecule, Recorded Measurement
data = [
    ("C#CCN(Cc1ccc2nc(OC)c(OC)nc2c1)c1cc(OC)c(OC)c(OC)c1", "7.82 µM (inactive)"),
    ("NC1=NC(=O)[C@H](CSCc2ccccc2)N1C(=O)OCc1ccccc1", "> 100 µM (inactive)"),
    ("O=C(NCCCCN(CCCNC(=O)C(F)(F)F)Cc1ccc2ccccc2c1)C(F)(F)F", "19.2 µM (inactive)"),
    ("O=C1/C(=C/c2cccnc2)C(n2cccc2)c2c(Br)sc(Br)c21 (configuration not stated)", "7.18 µM (inactive)"),
    ("CCSc1cc2c(cc1O)CC[C@@H]1[C@@H]2CC[C@]2(C)[C@@H](O)CC[C@@H]12", "10.8 µM (inactive)"),
    ("N/C=N/S(=O)(=O)c1ccc(NC(=O)COC(=O)c2cccc3c(=O)c4ccccc4[nH]c23)cc1", "> 100 µM (inactive)"),
    ("CCOP(=O)(CCCC(O)CNc1cc(Cl)nc(N)n1)OCC (configuration not stated)", "> 100 µM (inactive)"),
    ("O=C(CNC(=O)OCc1ccccc1)Oc1ccccc1", "> 100 µM (inactive)"),
]

Specify GI50 for c1ccc2c(c1)CC1COc3ccccc3C1O2 (configuration not stated) and stop.
17.4 µM (inactive)

Specify GI50 for CN1C(=O)C23CCCCC2CC1(c1ccccc1)S3 (configuration not stated) and stop.
72.3 µM (inactive)

Specify GI50 for CCCCC(=C=C1CCCCC1O)C1CCCN1C(=O)OC(C)(C)C (configuration not stated) and stop.
16.6 µM (inactive)

Specify GI50 for COC1CC(Br)(C#N)C1 (configuration not stated) and stop.
> 100 µM (inactive)

Specify GI50 for "O=C1Nc2ccc([N+](=O)[O-])cc2/C1=N/Nc1ccc([N+](=O)[O-])cc1" and stop.
12.2 µM (inactive)

Specify GI50 for CSc1nc(Br)nc2c1ncn2C1CC(Oc2ccc(C)cc2)C(COc2ccc(C)cc2)O1 (configuration not stated) and stop.
> 100 µM (inactive)

Specify GI50 for "O=S1(=O)CCCS(=O)(=O)C(c2ccccc2)=C1c1ccccc1" and stop.
52.8 µM (inactive)

Specify GI50 for NC1=NN(c2ccccc2)C(=O)C1C(=O)C(=O)NC1C2CC3CC(C2)CC1C3 (configuration not stated) and stop.
> 100 µM (inactive)
